test system: MRC-5 cells; settings: human
Experimental endpoint: CC50

[Q] Please indicate recorded CC50 of CCC(CC)COC(=O)[C@H](C)N[P@](=O)(OC[C@H]1O[C@@](C#N)(c2ccc3c(N)ncnn23)[C@H](O)[C@@H]1O)Oc1ccccc1 [Remdesivir, reference compound] measured with MRC-5 cells.
[A] > 5 µM

###

test: Cellular toxicity to HEp2 cells, RSV ALONG / RSV B18537 assays; format: cell-based; details: human, RSV ALONG table, read-out: TC50 (the source's name)
Experimental endpoint: CC50 (µM)
Give bare numbers, in µM.

[Q] Check the records and state CC50 for Cc1nccnc1/C=C/[C@@]1(C)C[C@@H](OC(=O)CSC2CCNCC2)[C@]2(C)[C@H](C)CC[C@]3(CCC(=O)[C@H]32)[C@@H](C)[C@@H]1O [BC 9842]
[A] 22.4
